Where do the numbers come from? From PubChem BioAssay (NCI).

tested on: HCT-15 colon; experiment: NCI-60 one-dose screen, 48 h (100 = growth as untreated, 0 = no growth, -100 = all killed); conditions: 10 µM unless noted
The panel holds about 83,000 compounds, 20% with a hit somewhere; the sample as a whole holds those more often.
Each entry belongs to exactly one class, chosen by where its growth falls: group 1: < 30%; group 2: ≥ 30% and < 70%; group 3: ≥ 70%

Worked cases, answers included:
NC(N)=Nc1ccc(Oc2ccc(Nc3ccc(Cl)c(C(F)(F)F)c3)cc2)cc1
group 2
C#Cc1nc(C(=O)NCCC(=O)Nc2ccc(NC(=O)c3ccc(/C=C/C(=O)c4nccn4C)cc3)cc2)cs1
group 1
CCc1nn2c(C)cc(C)nc2c1Cc1ccc(/C=C/CN2CCN(CCOCCOCCN3CCN(C/C=C/c4ccc(Cc5c(CC)nn6c(C)cc(C)nc56)cc4)CC3)CC2)cc1
group 1

Which band does CCCn1cnc2c(c1=N)C(c1ccc(Cl)cc1)c1sc3c(C)cccc3c1O2 (configuration not stated) fall in?
group 1

Which band does `Cc1ccc(-c2cc3nc(C(Cl)Cl)nc(-c4cccs4)n3n2)cc1` fall in?
group 2

Which band does CC(c1ccccc1)N1CSc2nc3ncncc3n2C1 (configuration not stated) fall in?
group 2

Which band does `O=C(CSc1nnc(-c2ccc(Cl)cc2)n1-c1ccccc1)Nc1cccc(Cl)c1` fall in?
group 3

Which band does `O=C1/C(=C/C=C/c2ccco2)SC(=S)N1c1ccccc1` fall in?
group 2

Which band does C=C(C=O)[C@@H]1CC[C@]2(COC(C)=O)CC[C@]3(C)C(CC[C@@H]4[C@@]5(C)CC[C@H](OC(C)=O)C(C)(C)[C@@H]5CC[C@]43C)[C@@H]12 (some centres not stated) fall in?
group 1

====

tested on: HCT-116 colon; experiment: NCI-60 one-dose screen, 48 h (100 = growth as untreated, 0 = no growth, -100 = all killed); conditions: 10 µM unless noted
This is part of a sample that, as a whole, favours compounds with a hit. Of some 83,000 tested, about 20% had one in any assay.
measurement_label: growth (%)
Number only, in %; omit the unit.

For orientation, consider the following solved cases.
CN1CCN(Cc2ccc(NC(=O)c3cncc(C#Cc4cnc5ccc(OCC6(C)COC6)nn45)c3)cc2C(F)(F)F)CC1
-75.5
COc1cc(C2N=C(NNc3ccccc3)NC(C)=C2C(C)=O)ccc1O (stereo not given)
95.1
CNC(=O)c1cc(-c2ccc(NS(=O)(=O)c3ccc(C)cc3)cc2)nc2cccnc12
111
COc1cc2nc(Cl)nc(Nc3cccc(C4=Nc5c(N)nc(N)nc5NC(c5ccc(F)cc5)C4)c3)c2cc1OC (stereo not given)
-41.7

Now for another entry.
Given the molecule CC(=O)N(C)C1CCc2c(sc(NC(=O)c3ccc(C(C)(C)C)cc3)c2C(N)=O)C1 (stereo not given) , what is its reported growth?
65.1

====

test system: SNB-19 CNS; experiment: NCI-60 one-dose screen, 48 h; details: 10 µM unless noted
The panel holds about 83,000 compounds, 20% with a hit somewhere; the sample as a whole holds those more often. Active and inactive are the calls of the source. The calls were made as follows: active = growth percent below 10; inactive = the rest.
Output constraint: value belongs to active, inactive

Worked cases, answers included:
Cn1cc(CNc2nc3ccc(OC/C(=C/F)CN)cc3o2)ccc1=O
inactive
C[C@H]1c2[nH]c3ccccc3c2C[C@H]2C(=O)N(CCCCCCC(=O)NO)CC(=O)N21
inactive

Identify the outcome logged in this assay for the molecule shown: `COc1ccc(COc2ccc(/C=C3\C(=O)Nc4ccccc43)cc2OC)cc1`
inactive

Identify the outcome logged in this assay for the molecule shown: `CC[C@H](CO)Nc1ccc2ncc(C#Cc3cncc(C(=O)Nc4ccc(CN5CCN(C)CC5)c(C(F)(F)F)c4)c3)n2n1`
active

Identify the outcome logged in this assay for the molecule shown: `COc1cc(-c2nn(C(C)(C)C)cc2-c2ccnc(NCCCNS(=O)(=O)c3ccc(F)cc3)n2)ccc1Cl`
inactive

Identify the outcome logged in this assay for the molecule shown: `NC/C(=C/F)COc1ccc2nc(NCc3cccnc3)oc2c1`
inactive

Identify the outcome logged in this assay for the molecule shown: `CN1CCN(c2ccc(/C=N/n3cnc4oc(-c5ccccc5)cc4c3=N)cc2)CC1`
inactive

Identify the outcome logged in this assay for the molecule shown: `COc1ccc(Cn2cc3c(c2-c2cc(OC)c(OC)c(OC)c2)CCc2c(CN4CCOCC4)noc2-3)cc1`
inactive

Identify the outcome logged in this assay for the molecule shown: `COc1ccc(/C=C/C(=O)c2cccc(NC(=O)CSc3nc4ccccc4c(=O)n3-c3ccccc3)c2)cc1OC`
inactive

====

system: NCI-H23 lung; assay: NCI-60 one-dose screen, 48 h (100 = growth as untreated, 0 = no growth, -100 = all killed); conditions: 10 µM unless noted
This is part of a sample that, as a whole, favours compounds with a hit. Of some 83,000 tested, about 20% had one in any assay.
The compounds listed here are annotated with their growth.
Number only, in %; omit the unit.

For orientation, consider the following solved cases.
N=c1c2cc(-c3ccccc3)oc2ncn1/N=C/c1ccc(Cl)cc1
97.8
Cc1cc(-c2ccc(Cl)cc2)n(Cc2nnc(SCC(=O)Nc3ccc(S(N)(=O)=O)cc3)n2C2CCCCC2)n1
99.4
CCc1cccc2c3c(sc12)C(c1ccc(OC)cc1)C(C#N)=C(/N=C/c1ccc(Cl)cc1)O3 (centres undefined)
19.9
CCO/C=N/C1=C(C#N)C(c2ccc(Cl)cc2)c2sc3c(C)cccc3c2O1 (centres undefined)
25.2
CCNC(=O)N1CCc2cc(OC)c(OCCc3ccc(OC)c(N)c3)cc2C1c1cc(C)c(C)cc1C (centres undefined)
41.8
NC(N)=Nc1ccc(Nc2cccc(Nc3ccc(Cl)c(C(F)(F)F)c3)c2)cn1
41.7

Given the compound `COc1cc(Nc2c(C#N)cnn3cc(-c4cnn(CC(C)(C)O)c4)cc23)ccc1Cl` , what is its reported growth?
41.4

Given the compound `CC(=O)Nc1cccc(Nc2nc(N[C@@H](C)c3ccccc3)c3ccccc3n2)c1` , what is its reported growth?
20.6

====

test system: KM12 colon; assay: NCI-60 one-dose screen, 48 h (100 = growth as untreated, 0 = no growth, -100 = all killed); conditions: 10 µM unless noted
Compounds without any hit were thinned out: in the full panel of roughly 83,000, 20% have a hit.
Lab note: compare growth with 20%, writing T if less and F if equal or more.

Worked cases, answers included:
O=C(Cn1cc[n+](CC(=O)c2ccc(-c3ccccc3)cc2)c1)Nc1cccc2cccnc12
F
CC1(C)CC[C@]2(CN)CC[C@]3(C)C(=CC[C@@H]4[C@@]5(C)CCCNC(C)(C)[C@@H]5CC[C@]43C)[C@H]2C1
F
Cc1cc2ncc(-c3cc4ccccc4c(N4CCN(C)CC4)n3)nc2cc1C
T

Is the reported growth for `FC(F)(F)c1cc(Nc2cccc(Oc3ccc(NC4=NCCN4)nc3)c2)ccc1Cl` strictly below 20%?
T

Is the reported growth for Cc1ccc2sc3c(c2c1)OC(N)=C(C#N)C3c1ccc(Cl)cc1 (centres undefined) strictly below 20%?
F

Is the reported growth for `O=S(=O)(NCCCNc1nccc(-c2[nH]c(-c3ccccc3)nc2-c2ccc(Cl)c(O)c2)n1)c1ccc(Br)cc1` strictly below 20%?
F

Is the reported growth for `NC(N)=Nc1ccc(Oc2cccc(Nc3ccc(Cl)c(C(F)(F)F)c3)c2)cn1` strictly below 20%?
T

Is the reported growth for `CC(C)C[C@@H]1N[C@@]2(C(=O)Nc3ccccc32)[C@@H](c2ccc(F)cc2)[C@@H]1C(=O)c1ccc(O)cc1` strictly below 20%?
F

Is the reported growth for `CCn1c2ccccc2c2cc(-n3nncc3-c3ccccc3)ccc21` strictly below 20%?
T

====

test system: SK-OV-3 ovarian; test: NCI-60 one-dose screen, 48 h (100 = growth as untreated, 0 = no growth, -100 = all killed); conditions: 10 µM unless noted
Compounds without any hit were thinned out: in the full panel of roughly 83,000, 20% have a hit. Activity calls are given as the source filed them. How the source made its calls: active means growth percent below 10; inactive means the rest.
measurement_label: growth

For orientation, consider the following solved cases.
CCNC(=O)N1CCc2cc(OC)c(OCCc3ccc(OC)c(N)c3)cc2C1c1ccc(C)cc1C (stereo not given)
52.8% (inactive)
CC(=O)C1=C(C)NC(NNC(N)=S)=NC1c1ccccc1 (stereo not given)
104% (inactive)
COc1cc(/C=C2\C(=O)Nc3cc(Cl)ccc32)ccc1OCc1ccc(F)cc1
97.2% (inactive)
NC(N)=Nc1ccc(Oc2cccc(NC(N)=Nc3ccc(Br)cc3)c2)cn1
73.6% (inactive)

Kindly state the measured growth obtained for `COc1cc(-c2nc3sccn3c2-c2ccnc(S(C)(=O)=O)n2)ccc1F` with SK-OV-3 ovarian.
113% (inactive)

====

test system: NCI-H522 lung; test: NCI-60 one-dose screen, 48 h (100 = growth as untreated, 0 = no growth, -100 = all killed); settings: 10 µM unless noted
About 83,000 compounds went through this panel and 20% of them were active in at least one assay; those are over-represented in the sample as a whole. The source made the active and inactive calls. Rule for the calls: active = growth percent below 10; inactive = the rest.
The compounds listed here are annotated with their growth.

For orientation, consider the following solved cases.
CC1(C)CC[C@]23CC[C@]4(C)[C@H](CC[C@@H]5[C@@]6(C)CCCN(CO)C(C)(C)[C@@H]6CC[C@]54C)[C@H]2[C@H]1OC3
94.9% (inactive)
COC(=O)C(Cc1ccccc1)Nc1nc(NC(Cc2ccccc2)C(=O)OC)nc(N2CCOCC2)n1 (configuration not stated)
91% (inactive)
CS(=O)(=O)c1ccc(-c2nn(-c3ccccc3)cc2/C=N/NC(=O)c2nc(N)n[nH]2)cc1
94.2% (inactive)
CNC1CCc2c(sc(NC(=O)c3ccc(C(C)(C)C)cc3)c2C(N)=O)C1 (configuration not stated)
61.6% (inactive)
N#Cc1cccc(CN2CCC3=C(C2)C(=O)N(Cc2ccc(Cl)cc2)C2=NCCN23)c1
23.1% (inactive)
CCCCCc1ccc(S(=O)(=O)Nc2cc(-c3csc(NC(=O)CN4CCN(C)CC4)n3)ccc2OC)cc1
-51.9% (active)
CCc1ccc(SC2c3ccc(N(CC)CC)cc3Oc3nc(N)c(C#N)c(N)c32)cc1 (configuration not stated)
-38.4% (active)
Cc1cc(C)c(N2C(=O)CC(Nc3ccc(Cl)cc3Cl)C2=O)c(C)c1 (configuration not stated)
93.6% (inactive)

Given the compound `COc1ccc(NC(=O)CSc2nnc(-c3ccc4nc(-c5ccc(OC)c(OC)c5)[nH]c4c3)o2)cc1OC` , what is its reported growth?
95.1% (inactive)

Given the compound `CCN(CC)c1cn(-c2ccc(S(N)(=O)=O)cc2)nn1` , what is its reported growth?
92.9% (inactive)
